# Experimental System: BuChE from equine serum (Equus caballus)
# Construct: 12 U/ml BuChE from equine serum; from tissue; host or cells: equine serum
# Sequence (P81908 whole entry): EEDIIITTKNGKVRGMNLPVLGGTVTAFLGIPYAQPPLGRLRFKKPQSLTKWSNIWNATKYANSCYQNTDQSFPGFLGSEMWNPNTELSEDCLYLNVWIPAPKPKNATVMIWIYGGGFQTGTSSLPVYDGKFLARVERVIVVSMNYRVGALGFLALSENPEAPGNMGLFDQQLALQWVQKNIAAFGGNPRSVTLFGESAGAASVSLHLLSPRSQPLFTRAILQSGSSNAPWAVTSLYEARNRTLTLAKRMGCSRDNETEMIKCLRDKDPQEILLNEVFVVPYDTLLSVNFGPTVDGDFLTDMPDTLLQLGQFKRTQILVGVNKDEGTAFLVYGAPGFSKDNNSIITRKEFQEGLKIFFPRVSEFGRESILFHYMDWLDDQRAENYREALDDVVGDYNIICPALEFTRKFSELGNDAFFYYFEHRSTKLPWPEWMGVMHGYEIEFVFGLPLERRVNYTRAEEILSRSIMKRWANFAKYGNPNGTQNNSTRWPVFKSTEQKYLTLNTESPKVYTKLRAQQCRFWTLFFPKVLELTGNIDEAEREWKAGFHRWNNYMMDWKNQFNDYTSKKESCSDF
# Assay Method Text: biochemical
# Condition Description: Ellman method, 25 °C, pH 8; read-out: BuChE IC50
Endpoint Label: IC50

C#CCNCc1cc2ccc(OCCc3ccccc3)cc2oc1=O ... > 100 µM
CCN(CC)C(=O)Oc1ccc2cc(CBr)c(=O)oc2c1 ... 23.3 µM
Cc1cc2ccc(OCCc3ccccc3)cc2oc1=O ... > 100 µM
O=c1oc2cc(OCCc3ccccc3)ccc2cc1CBr ... > 100 µM

[in] Give BuChE from equine serum (Equus caballus) IC50 for CCN(CC)C(=O)Oc1ccc2cc(C)c(=O)oc2c1
[out] > 100 µM

====

# Experimental System: Electrophorus electricus AChE (Electrophorus electricus, UniProt O42275)
# Sequence (O42275 24-633): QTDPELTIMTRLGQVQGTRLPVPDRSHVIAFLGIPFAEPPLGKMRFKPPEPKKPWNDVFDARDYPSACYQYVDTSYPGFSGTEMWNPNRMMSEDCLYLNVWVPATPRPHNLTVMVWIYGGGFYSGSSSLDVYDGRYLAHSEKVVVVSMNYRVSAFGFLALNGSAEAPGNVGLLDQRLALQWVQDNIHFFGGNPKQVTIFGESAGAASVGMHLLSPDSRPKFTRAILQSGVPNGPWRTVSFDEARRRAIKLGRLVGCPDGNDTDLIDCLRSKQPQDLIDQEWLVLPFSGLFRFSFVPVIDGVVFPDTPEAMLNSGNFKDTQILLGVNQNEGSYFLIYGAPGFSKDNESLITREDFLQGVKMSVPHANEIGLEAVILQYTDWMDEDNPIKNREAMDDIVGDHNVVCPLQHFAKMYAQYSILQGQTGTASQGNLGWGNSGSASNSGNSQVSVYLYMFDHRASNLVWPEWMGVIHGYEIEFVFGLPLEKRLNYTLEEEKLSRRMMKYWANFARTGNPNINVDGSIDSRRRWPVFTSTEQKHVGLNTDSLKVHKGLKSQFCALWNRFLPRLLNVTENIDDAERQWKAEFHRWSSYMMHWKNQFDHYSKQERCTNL
# Assay Method Text: biochemical
# Condition Description: AChE IC50
pIC50: −log10 of the molar value.
Endpoint Label: pIC50

[in] Need pIC50, item Cc1cc2ccc(O)cc2oc1=O [Compound 1, 7-hydroxy-3-methyl-2H-1-benzopyran-2-one]
[out] < 4.00

====

# Experimental System: BuChE from equine serum (Equus caballus)
# Construct: 12 U/ml BuChE from equine serum; from tissue; host or cells: equine serum
# Assay Method Text: biochemical
Endpoint Label: pIC50
# pIC50 is unitless: minus log10 of the molar concentration; print number only

[in] Need pIC50, item Cc1cc2ccc(O)cc2oc1=O [Compound 1, 7-hydroxy-3-methyl-2H-1-benzopyran-2-one]
[out] 4.69

====

# Experimental System: recombinant human MAO-A (Homo sapiens, UniProt P21397)
# Sequence (P21397 1-527): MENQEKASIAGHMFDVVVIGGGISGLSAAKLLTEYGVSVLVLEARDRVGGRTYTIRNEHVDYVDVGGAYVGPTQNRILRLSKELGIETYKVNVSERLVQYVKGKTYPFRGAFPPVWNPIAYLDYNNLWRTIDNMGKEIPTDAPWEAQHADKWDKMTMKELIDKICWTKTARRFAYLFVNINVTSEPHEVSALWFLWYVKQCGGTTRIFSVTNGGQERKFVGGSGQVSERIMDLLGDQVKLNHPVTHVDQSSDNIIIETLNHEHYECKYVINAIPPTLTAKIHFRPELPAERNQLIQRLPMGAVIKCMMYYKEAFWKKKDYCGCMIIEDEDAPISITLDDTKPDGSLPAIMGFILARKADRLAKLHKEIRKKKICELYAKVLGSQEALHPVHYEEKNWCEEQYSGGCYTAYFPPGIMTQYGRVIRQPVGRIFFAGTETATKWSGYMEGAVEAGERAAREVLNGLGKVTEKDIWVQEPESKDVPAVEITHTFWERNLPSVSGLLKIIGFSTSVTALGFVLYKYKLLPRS
# Assay Method Text: biochemical
# Condition Description: kynuramine 45 µM, 37 °C; read-out: MAO-A IC50
Documented IC50 across a set of molecules
The figure you give is taken to be in nM; do not add the unit.

Below, each entry is followed by its recorded IC50 result.
C#CCNCc1cc2ccc(OCCc3ccccc3)cc2oc1=O [Compound 6] ... 3860
CCN(CC)C(=O)Oc1ccc2cc(C)c(=O)oc2c1 [Compound 3] ... 2820

Switching to the query record.
[in] Need IC50, item Cc1cc2ccc(OCCc3ccccc3)cc2oc1=O [Compound 2]
[out] 658

====

# Experimental System: recombinant human MAO-B (Homo sapiens)
# Sequence (P27338 whole entry): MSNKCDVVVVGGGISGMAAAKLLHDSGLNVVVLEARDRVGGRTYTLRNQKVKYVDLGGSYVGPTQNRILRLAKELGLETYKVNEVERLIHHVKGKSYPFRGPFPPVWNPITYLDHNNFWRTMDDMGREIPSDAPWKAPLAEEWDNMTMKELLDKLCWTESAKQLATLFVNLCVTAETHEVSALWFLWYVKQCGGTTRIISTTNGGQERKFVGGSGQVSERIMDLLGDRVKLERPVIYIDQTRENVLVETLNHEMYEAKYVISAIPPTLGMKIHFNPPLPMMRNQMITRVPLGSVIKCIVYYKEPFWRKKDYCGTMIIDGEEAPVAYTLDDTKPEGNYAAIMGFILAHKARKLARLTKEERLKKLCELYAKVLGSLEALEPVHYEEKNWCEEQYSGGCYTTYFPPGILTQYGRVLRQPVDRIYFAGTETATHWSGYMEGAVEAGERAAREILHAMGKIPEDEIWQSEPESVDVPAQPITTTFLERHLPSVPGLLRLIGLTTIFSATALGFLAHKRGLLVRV
# Assay Method Text: MAO-B fluorometric assay (kynuramine)
# Type: biochemical
Note to self: values exactly at 50 are Y. So SI MAO-B (MAO-B selectivity index = IC50(MAO-A)/IC50(MAO-B)) at or above 50 is Y, below is N.

Reference set, count: 5
Cc1cc2ccc(O)cc2oc1=O [Compound 1, 7-hydroxy-3-methyl-2H-1-benzopyran-2-one] ... N
C#CCNCc1cc2ccc(OC(=O)N(CC)CC)cc2oc1=O ... Y
C#CCNCc1cc2ccc(OCCc3ccccc3)cc2oc1=O ... Y
Cc1cc2ccc(OCCc3ccccc3)cc2oc1=O ... N
CCN(CC)C(=O)Oc1ccc2cc(C)c(=O)oc2c1 ... N

Turning now to a further compound:
[in] # check: SI MAO-B (MAO-B selectivity index = IC50(MAO-A)/IC50(MAO-B)) of CCN(CC)C(=O)Oc1ccc2cc(CBr)c(=O)oc2c1 is greater than or equal to 50
[out] N

====

# Experimental System: recombinant human MAO-A (Homo sapiens, UniProt P21397)
# Sequence (P21397 1-527): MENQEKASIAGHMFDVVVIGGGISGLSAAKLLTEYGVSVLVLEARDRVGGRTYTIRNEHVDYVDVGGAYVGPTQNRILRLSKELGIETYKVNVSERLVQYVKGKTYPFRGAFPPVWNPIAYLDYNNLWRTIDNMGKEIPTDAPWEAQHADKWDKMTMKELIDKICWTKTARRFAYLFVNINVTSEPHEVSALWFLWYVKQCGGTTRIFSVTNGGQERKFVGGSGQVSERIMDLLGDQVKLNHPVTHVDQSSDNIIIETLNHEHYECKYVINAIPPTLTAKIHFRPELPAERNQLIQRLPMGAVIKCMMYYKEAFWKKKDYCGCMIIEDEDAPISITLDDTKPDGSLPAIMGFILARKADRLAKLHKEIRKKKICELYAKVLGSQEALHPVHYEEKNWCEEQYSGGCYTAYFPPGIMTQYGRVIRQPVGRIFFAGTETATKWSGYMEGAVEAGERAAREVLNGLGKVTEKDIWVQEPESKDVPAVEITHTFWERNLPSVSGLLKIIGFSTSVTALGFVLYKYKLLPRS
# Assay Method Text: biochemical
# Condition Description: MAO-A IC50
Endpoint Label: pIC50
# pIC50 is unitless: minus log10 of the molar concentration; print number only

[in] Need pIC50, item Cc1cc2ccc(O)cc2oc1=O [Compound 1, 7-hydroxy-3-methyl-2H-1-benzopyran-2-one]
[out] 4.48

====

# Experimental System: recombinant human MAO-B (Homo sapiens)
# Assay Method Text: MAO-B fluorometric assay (kynuramine)
# Assay type: biochemical
# Condition Description: kynuramine 30 µM, 37 °C; read-out: MAO-B IC50
The label is Yes for IC50 below 100 nM and No for IC50 equal to or exceeding 100 nM.

[in] Decide: IC50 of C#CCNCc1cc2ccc(OCCc3ccccc3)cc2oc1=O strictly below 100 nM?
[out] Yes

[in] Then this molecule: O=c1oc2cc(OCCc3ccccc3)ccc2cc1CBr
[out] No

[in] Then this molecule: CCN(CC)C(=O)Oc1ccc2cc(C)c(=O)oc2c1
[out] No

[in] Then this molecule: Cc1cc2ccc(OCCc3ccccc3)cc2oc1=O
[out] Yes

[in] Then this molecule: CCN(CC)C(=O)Oc1ccc2cc(CBr)c(=O)oc2c1
[out] No

====

# Experimental System: Electrophorus electricus AChE (Electrophorus electricus)
# Assay Method Text: biochemical
# Condition Description: AChE IC50, Ellman method, 25 °C, pH 8
Endpoint Label: IC50

[in] Give Electrophorus electricus AChE (Electrophorus electricus) IC50 for C#CCNCc1cc2ccc(OC(=O)N(CC)CC)cc2oc1=O
[out] > 100 µM
